Values from patent US12637685B2

System: maize HMG13 gene in maize A188 immature embryos
Assay: Genome editing SDN-1 in regenerated T0 plants of maize A188 (Example 5)
Type: cell-based
Details: T0 events
Measured quantity: Total SDN-1
Keep the answer to the number alone.

Exercise: Record request: Total SDN-1 value, item RBP2: artificial regeneration booster protein, SEQ ID NO: 33 (CDS SEQ ID NO: 21), expressed from construct pABM-BdEF1_RBP2 (protein) MESGSGTAAGSGYVYRQSGSTRWNPTAEQLSLLKELYYRNGIRTPSADQIRQISARLSRYGKIEGKNVFYWFQNHKARERQKKRLSTVGCDPALIEMGNVASLEFGTESALESLSSGPSSELREAPTRKFYEKKTVGENSTIINPVEQNCTLSCGTSQEFQYAVDSRRVMKAMEEKQATDDEPDGNKWTESNRHVKTLPLFPLHNNEDQTLIKSDKEIYCLGSCEKKMDLSPLGHSGSQRASALDLCLSLGNESCGLHDN
Solution: 34
